We begin with a simple list: items and their reported concentration at 16 h.
- Method Summary: Drug concentration in brain of human SUP-M2 cells xenografted SCID mouse at 30 mg/kg, po measured after 16 hrs
- Format: ADME, organism-based
- Design: dose 30 mg/kg, route oral
- Test Parameters: read-out: Drug uptake
The response must be a number in ng/g with no trailing unit.

COc1cc([C@H]2CCN(CCO)C[C@@H]2O)ccc1Nc1ncc2ccc(-c3ccccc3OC)n2n1 :: 16100

Moving on to the next compound.
The recorded concentration at 16 h for entry COc1cc(C2CCN(CCO)CC2O)ccc1Nc1ncc2ccc(-c3ccccc3OC)n2n1 (single isomer, unassigned; enantiomer 1) equals 2210

###

- Method Summary: Volume of distribution in Sprague-Dawley rat at 1 mg/kg, iv
- Type: ADME, organism-based
- Parameters: dose 1 mg/kg, route intravenous
- Test Parameters: in vivo
Reported Endpoint: Vd (L/kg)
The response must be a number in L/kg with no trailing unit.

COc1cc([C@H]2CCN(CCO)C[C@@H]2O)ccc1Nc1ncc2ccc(-c3ccccc3OC)n2n1 (relative stereo) :: 10.3

The recorded Vd for entry COc1cc([C@@H]2CCN(CCO)C[C@@H]2O)ccc1Nc1ncc2ccc(-c3ccccc3OC)n2n1 (racemic) equals 9.9

###

- Method Summary: Half life in monkey liver microsomes
- Format: ADME, Macaca mulatta
- Test Parameters: rhesus monkey
We begin with a simple list: items and their reported half-life.
The response must be a number in min with no trailing unit.

The recorded half-life for entry COc1cc([C@H]2CCN(CCO)C[C@@H]2O)ccc1Nc1ncc2ccc(-c3ccccc3OC)n2n1 (relative stereo) equals 30

The recorded half-life for entry COc1cc([C@@]2(O)CCN(C)C[C@@H]2O)ccc1Nc1ncc2ccc(-c3ccccc3OC)n2n1 (relative stereo) equals 32

The recorded half-life for entry COc1cc([C@@]2(O)CCN(CC(N)=O)C[C@@H]2O)ccc1Nc1ncc2ccc(-c3ccccc3OC)n2n1 equals 17

The recorded half-life for entry COc1cc([C@@H]2CCN(CC(N)=O)C[C@@H]2O)ccc1Nc1ncc2ccc(-c3ccccc3OC)n2n1 (relative stereo) equals 7

The recorded half-life for entry COc1cc([C@@]2(O)CCNC[C@@H]2O)ccc1Nc1ncc2ccc(-c3ccccc3N(C)S(C)(=O)=O)n2n1 equals 25

The recorded half-life for entry COc1cc([C@@]2(O)CCN(CC(N)=O)C[C@@H]2O)ccc1Nc1ncc2ccc(-c3ccccc3N(C)S(C)(=O)=O)n2n1 equals 8

The recorded half-life for entry COc1cc(C2CCN(C)CC2O)ccc1Nc1ncc2ccc(-c3ccccc3OC)n2n1 (racemic) equals 22

###

We begin with a simple list: items and their reported concentration at 2 h.
- Method Summary: Plasma concentration in human SUP-M2 cells xenografted SCID mouse at 30 mg/kg, po measured after 2 hrs
- Type: ADME, organism-based
- Design: dose 30 mg/kg, route oral
- Test Parameters: SCID, plasma
Reply with a number, then the unit it belongs to.

Here's what some known entries look like.
COc1cc([C@H]2CCN(CCO)C[C@@H]2O)ccc1Nc1ncc2ccc(-c3ccccc3OC)n2n1 (relative stereo) :: 523 ng/mL
COc1cc(C2CCN(CCO)CC2O)ccc1Nc1ncc2ccc(-c3ccccc3OC)n2n1 (single isomer, unassigned; enantiomer 1) :: 355 ng/mL

Moving on to the next molecule.
The recorded concentration at 2 h for entry COc1cc([C@@H]2CCN(CCO)C[C@@H]2O)ccc1Nc1ncc2ccc(-c3ccccc3OC)n2n1 (racemic) equals 389 ng/mL

###

We begin with a simple list: items and their reported clearance.
- Method Summary: Clearance in Sprague-Dawley rat at 1 mg/kg, iv
- Format: ADME, organism-based
- Set-up: dose 1 mg/kg, route intravenous
- Test Parameters: in vivo

COc1cc([C@H]2CCN(CCO)C[C@@H]2O)ccc1Nc1ncc2ccc(-c3ccccc3OC)n2n1 (relative stereo) :: 39 mL/min/kg

Moving on to the next compound.
The recorded clearance for entry COc1cc([C@@H]2CCN(CCO)C[C@@H]2O)ccc1Nc1ncc2ccc(-c3ccccc3OC)n2n1 (racemic) equals 46 mL/min/kg

###

We begin with a simple list: items and their reported concentration at 12 h.
- Method Summary: Plasma concentration in human SUP-M2 cells xenografted SCID mouse at 30 mg/kg, po measured after 12 hrs
- Type: ADME, organism-based
- Design: dose 30 mg/kg, route oral
The response must be a number in ng/mL with no trailing unit.

COc1cc([C@H]2CCN(CCO)C[C@@H]2O)ccc1Nc1ncc2ccc(-c3ccccc3OC)n2n1 (relative stereo) :: 213

Moving on to the next molecule.
The recorded concentration at 12 h for entry COc1cc([C@@H]2CCN(CCO)C[C@@H]2O)ccc1Nc1ncc2ccc(-c3ccccc3OC)n2n1 (racemic) equals 164

###

- Tested System: Cytochrome P450 2C9 (Homo sapiens, UniProt P11712)
- Sequence (P11712 whole entry): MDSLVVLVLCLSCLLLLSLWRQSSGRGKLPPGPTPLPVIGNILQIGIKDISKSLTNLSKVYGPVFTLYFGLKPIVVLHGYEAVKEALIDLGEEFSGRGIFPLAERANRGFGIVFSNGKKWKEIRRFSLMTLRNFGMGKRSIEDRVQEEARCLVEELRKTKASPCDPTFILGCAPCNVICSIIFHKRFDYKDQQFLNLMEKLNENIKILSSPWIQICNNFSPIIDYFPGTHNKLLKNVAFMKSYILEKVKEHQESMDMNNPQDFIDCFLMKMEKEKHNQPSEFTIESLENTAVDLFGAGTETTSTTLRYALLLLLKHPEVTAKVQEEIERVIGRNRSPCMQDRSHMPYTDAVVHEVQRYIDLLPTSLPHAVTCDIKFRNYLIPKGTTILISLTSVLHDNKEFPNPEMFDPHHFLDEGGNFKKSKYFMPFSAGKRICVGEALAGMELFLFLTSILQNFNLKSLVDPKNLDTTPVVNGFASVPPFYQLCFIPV
Reported Endpoint: IC50 (µM)
The response must be a number in µM with no trailing unit.

Result for COc1cc([C@H]2CCN(CCO)C[C@@H]2O)ccc1Nc1ncc2ccc(-c3ccccc3OC)n2n1 , tested on Cytochrome P450 2C9 (Homo sapiens, UniProt P11712), IC50: 19

###

- Method Summary: Oral bioavailability in Sprague-Dawley rat at 5 mg/kg
- Assay type: ADME, organism-based
- Test Parameters: in vivo
Reported Endpoint: bioavailability (%)
The response must be a number in % with no trailing unit.

COc1cc([C@H]2CCN(CCO)C[C@@H]2O)ccc1Nc1ncc2ccc(-c3ccccc3OC)n2n1 (relative stereo) :: 31

The recorded bioavailability for entry COc1cc([C@@H]2CCN(CCO)C[C@@H]2O)ccc1Nc1ncc2ccc(-c3ccccc3OC)n2n1 (racemic) equals 26

###

We begin with a simple list: items and their reported Cmax.
- Method Summary: Cmax in Sprague-Dawley rat at 5 mg/kg, po
- Type: ADME, organism-based
- Set-up: dose 5 mg/kg, route oral
- Test Parameters: in vivo
The response must be a number in ng/mL with no trailing unit.

COc1cc([C@@H]2CCN(CCO)C[C@@H]2O)ccc1Nc1ncc2ccc(-c3ccccc3OC)n2n1 (racemic) :: 85

Moving on to the next molecule.
The recorded Cmax for entry COc1cc([C@H]2CCN(CCO)C[C@@H]2O)ccc1Nc1ncc2ccc(-c3ccccc3OC)n2n1 (relative stereo) equals 97

###

- Method Summary: Solubility in water at neutral pH
- Assay type: physicochemical
Reported Endpoint: solubility (µg/mL)
The response must be a number in µg/mL with no trailing unit.

COc1cc([C@@H]2CCN(CCO)C[C@@H]2O)ccc1Nc1ncc2ccc(-c3ccccc3OC)n2n1 (racemic) :: 50

The recorded solubility for entry COc1cc([C@@H]2CCN(CC(N)=O)C[C@@H]2O)ccc1Nc1ncc2ccc(-c3ccccc3OC)n2n1 (relative stereo) equals 2

###

- Method Summary: Plasma concentration in human SUP-M2 cells xenografted SCID mouse at 30 mg/kg, po measured after 16 hrs
- Assay type: ADME, organism-based
- Design: dose 30 mg/kg, route oral
We begin with a simple list: items and their reported concentration at 16 h.
The response must be a number in ng/mL with no trailing unit.

COc1cc([C@H]2CCN(CCO)C[C@@H]2O)ccc1Nc1ncc2ccc(-c3ccccc3OC)n2n1 :: 567

The recorded concentration at 16 h for entry COc1cc(C2CCN(CCO)CC2O)ccc1Nc1ncc2ccc(-c3ccccc3OC)n2n1 (single isomer, unassigned; enantiomer 1) equals 51

###

- Method Summary: Plasma concentration in human SUP-M2 cells xenografted SCID mouse at 30 mg/kg, po measured after 24 hrs
- Assay type: ADME, organism-based
- Set-up: dose 30 mg/kg, route oral
Reported Endpoint: concentration at 24 h (ng/mL)
The response must be a number in ng/mL with no trailing unit.

COc1cc([C@H]2CCN(CCO)C[C@@H]2O)ccc1Nc1ncc2ccc(-c3ccccc3OC)n2n1 (relative stereo) :: 55

Moving on to the next compound.
The recorded concentration at 24 h for entry COc1cc([C@@H]2CCN(CCO)C[C@@H]2O)ccc1Nc1ncc2ccc(-c3ccccc3OC)n2n1 (racemic) equals 19

###

We begin with a simple list: items and their reported half-life.
- Method Summary: Half life in rat liver microsomes
- Type: ADME
The response must be a number in min with no trailing unit.

COc1cc([C@@]2(O)CCN(CC(N)=O)C[C@@H]2O)ccc1Nc1ncc2ccc(-c3ccccc3N(C)S(C)(=O)=O)n2n1 :: 26
COc1cc([C@@H]2CCN(CC(N)=O)C[C@@H]2O)ccc1Nc1ncc2ccc(-c3ccccc3OC)n2n1 (relative stereo) :: 34

Moving on to the next compound.
The recorded half-life for entry COc1cc([C@@]2(O)CCN(CC(N)=O)C[C@@H]2O)ccc1Nc1ncc2ccc(-c3ccccc3OC)n2n1 equals 31

###

- Method Summary: AUC (0 to infinity) in Sprague-Dawley rat at 1 mg/kg, iv
- Assay type: ADME, organism-based
- Set-up: time infinity, dose 1 mg/kg, route intravenous
- Test Parameters: plasma
Reported Endpoint: AUC(0-inf) (ng·h/mL)
The response must be a number in ng·h/mL with no trailing unit.

COc1cc([C@@H]2CCN(CCO)C[C@@H]2O)ccc1Nc1ncc2ccc(-c3ccccc3OC)n2n1 (racemic) :: 371

Moving on to the next molecule.
The recorded AUC(0-inf) for entry COc1cc([C@H]2CCN(CCO)C[C@@H]2O)ccc1Nc1ncc2ccc(-c3ccccc3OC)n2n1 (relative stereo) equals 459
